Overview of reported pIC50 across a group of compounds:
# TARGET_ENTITY: Itk (Homo sapiens)
# Construct: Kinases are expressed as either kinase domains or full length constructs; made in house
# Sequence (Q08881 whole entry, species assumed, the tested form may be a part): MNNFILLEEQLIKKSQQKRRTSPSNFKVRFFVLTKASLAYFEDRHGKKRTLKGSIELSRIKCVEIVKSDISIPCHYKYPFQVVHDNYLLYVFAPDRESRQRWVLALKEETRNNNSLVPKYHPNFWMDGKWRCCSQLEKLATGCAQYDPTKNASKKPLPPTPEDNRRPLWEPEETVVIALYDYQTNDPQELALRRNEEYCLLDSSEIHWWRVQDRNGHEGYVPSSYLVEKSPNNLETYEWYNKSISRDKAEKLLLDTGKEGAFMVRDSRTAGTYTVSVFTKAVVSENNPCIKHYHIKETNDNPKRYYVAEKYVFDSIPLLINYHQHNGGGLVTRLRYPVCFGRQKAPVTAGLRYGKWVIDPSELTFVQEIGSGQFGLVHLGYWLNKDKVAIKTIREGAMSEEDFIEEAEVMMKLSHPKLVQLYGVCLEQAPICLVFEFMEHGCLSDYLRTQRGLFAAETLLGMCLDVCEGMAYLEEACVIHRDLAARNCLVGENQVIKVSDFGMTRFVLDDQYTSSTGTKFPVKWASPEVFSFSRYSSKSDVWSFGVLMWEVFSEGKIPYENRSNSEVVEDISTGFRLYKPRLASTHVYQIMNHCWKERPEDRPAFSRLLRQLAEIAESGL
# EXPERIMENT: Kinase inhibition assay (33P transfer), Itk
# Assay type: biochemical
# EXPERIMENTAL_SETUP: Table 3; read-out: Itk-1
pIC50: −log10 of the molar value.

Study these solved cases before continuing.
- STRUCTURE_AS_SMILES: "COc1cc(Nc2ncnc(-c3ccc(F)cc3)n2)cc(OC)c1OC"
  pIC50: "< 4.90"
- STRUCTURE_AS_SMILES: "COCCOc1ccc(Nc2ncnc(Nc3ccc4[nH]ccc4c3)n2)cc1OCCOC"
  pIC50: "< 5.00"
- STRUCTURE_AS_SMILES: "Cc1ccc(Nc2ncnc(-n3cccc3)n2)cc1Cl"
  pIC50: "< 4.80"
- STRUCTURE_AS_SMILES: "FC(F)(F)c1cccc(Nc2ncnc(-n3cccc3)n2)c1"
  pIC50: "< 4.83"
- STRUCTURE_AS_SMILES: "NC(=O)c1ccc(Nc2ncnc(-n3c(N)nc4ccccc43)n2)cc1"
  pIC50: "> 5.94"

The compound identified as COc1cc(Nc2ncnc(-n3c(Nc4ccc(Cl)cc4)nc4ccccc43)n2)cc(OC)c1OC registered its pIC50 at < 5.05

What the record says about COc1cc(Nc2ncnc(Nc3cccc4cccnc34)n2)cc(OC)c1OC : pIC50 is < 4.95

Recorded pIC50 (compound COc1cc(Nc2ncnc(-c3cccnc3)n2)cc(OC)c1OC ): < 4.88

The compound listed as COc1cc(Nc2ncnc(Nc3[nH]ncc3-c3ccccc3)n2)cc(OC)c1OC has a reported pIC50 of 4.97 to 5.08

====

# TARGET_ENTITY: Zap-70 (Homo sapiens)
# Construct: Kinases are expressed as either kinase domains or full length constructs; made in house
# Sequence (P43403 whole entry, species assumed, the tested form may be a part): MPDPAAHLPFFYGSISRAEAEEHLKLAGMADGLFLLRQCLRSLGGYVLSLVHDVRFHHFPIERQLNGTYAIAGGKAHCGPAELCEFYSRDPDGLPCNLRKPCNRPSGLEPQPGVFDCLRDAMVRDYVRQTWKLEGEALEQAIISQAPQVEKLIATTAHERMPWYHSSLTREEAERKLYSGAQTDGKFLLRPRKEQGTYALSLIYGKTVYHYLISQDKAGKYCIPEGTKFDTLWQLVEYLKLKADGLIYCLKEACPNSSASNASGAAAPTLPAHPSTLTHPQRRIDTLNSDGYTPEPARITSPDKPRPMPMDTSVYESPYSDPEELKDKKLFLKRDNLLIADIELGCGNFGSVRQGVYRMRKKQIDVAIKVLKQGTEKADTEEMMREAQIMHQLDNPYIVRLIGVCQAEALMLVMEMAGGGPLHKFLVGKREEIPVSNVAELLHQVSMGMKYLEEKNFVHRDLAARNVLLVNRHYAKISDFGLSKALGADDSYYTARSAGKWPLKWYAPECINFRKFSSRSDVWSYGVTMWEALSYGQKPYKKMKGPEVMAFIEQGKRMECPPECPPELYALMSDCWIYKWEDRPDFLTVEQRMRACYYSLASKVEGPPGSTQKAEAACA
# EXPERIMENT: Kinase inhibition assay (33P transfer), Zap-70
# Type: biochemical
# EXPERIMENTAL_SETUP: Table 3; read-out: Zap-1
pIC50: −log10 of the molar value.
ASSAY_METRIC: pIC50

Quick note, pIC50 for COc1cc(Nc2ncnc(Nc3ccccc3F)n2)cc(OC)c1OC [Compound 65] landed at < 4.92

Kindly note the recorded pIC50 for CC[C@H]1CN(c2ccc(-c3ncnc(Nc4cc(OC)c(OC)c(OC)c4)n3)cn2)CCN1 [Compound 446] , which is < 5.00

The compound listed as COc1cc(Nc2ncnc(N)n2)cc(OC)c1OC [Compound 1024] has a reported pIC50 of < 4.79

====

# TARGET_ENTITY: Lck (Homo sapiens)
# Construct: Kinases are expressed as either kinase domains or full length constructs; made in house
# Sequence (P06239 whole entry, species assumed, the tested form may be a part): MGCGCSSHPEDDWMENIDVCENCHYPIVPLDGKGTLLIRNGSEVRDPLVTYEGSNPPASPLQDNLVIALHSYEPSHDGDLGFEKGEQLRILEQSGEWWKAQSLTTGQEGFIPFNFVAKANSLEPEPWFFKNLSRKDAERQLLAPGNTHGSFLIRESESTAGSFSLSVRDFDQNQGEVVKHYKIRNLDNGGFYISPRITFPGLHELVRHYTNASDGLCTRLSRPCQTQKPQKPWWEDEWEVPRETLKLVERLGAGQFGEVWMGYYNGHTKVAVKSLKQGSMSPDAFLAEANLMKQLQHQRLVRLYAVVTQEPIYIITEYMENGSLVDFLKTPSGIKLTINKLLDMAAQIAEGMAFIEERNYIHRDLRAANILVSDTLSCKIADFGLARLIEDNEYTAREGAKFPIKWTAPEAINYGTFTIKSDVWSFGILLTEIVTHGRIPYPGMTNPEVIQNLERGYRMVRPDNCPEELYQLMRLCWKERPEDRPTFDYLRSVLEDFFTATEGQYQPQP
# EXPERIMENT: Kinase inhibition assay (33P transfer), Lck
# Format: biochemical
# EXPERIMENTAL_SETUP: read-out: Lck-1
ASSAY_METRIC: IC50

Known results for compounds:
- COMPOUND: "COc1cc(Nc2ncnc(-n3c(NCc4ccccn4)nc4ccccc43)n2)cc(OC)c1OC [Compound 414]"
  IC50: "826 to 4950 nM"
- COMPOUND: "CN(c1cccc(Cl)c1)c1ncnc(Nc2cccc(Cc3nnn[nH]3)c2)n1 [Compound 720]"
  IC50: "1020 to 6090 nM"
- COMPOUND: "COc1ccc(Nc2ncnc(Nc3cc(OC)c(OC)c(OC)c3)n2)cc1OCCN1CCOCC1 [Compound 599]"
  IC50: "780 to 4680 nM"

IC50 value, target or system Lck (Homo sapiens), for COc1cc(Nc2ncnc(-n3c(N)nc4ccccc43)n2)cc(OC)c1 [Compound 477] : 1100 to 6600 nM

Recorded values, source patent US7074789B2.
